Data credit: patent US20170369590A1

Target: human epidermal growth factor receptor 2 (HER2), membrane-bound on cells (human, UniProt P04626 23-1255)
Assay: cell-based or functional assay
Mark T only for EC50 of cell kill, AU565, anti-kappa-ETA'-conjugated values smaller than 0.03 µg/mL; exact matches and larger values are F.

binder	assignedClass
HuMab 050 (antibody, V domains shown, also called TH1014-050; PC1014-050) VH: EVQLLESGGGLVQPGGSLRLSCAASGFTFSSYAMNWVRQAPGKGLEWVSAISGRGGTTYYADSVKGRFTISRDNSKNTLYLQMSSLRAEDTAVYYCAKARANWDYFDYWGQGTLVTVSS VL: DIQMTQSPSSVSASVGDRVTITCRASQGISSWLAWYQHKPGKAPKLLIYAASILQSGVPSRFSGSGSGTDFTLTISSLQPEDFATYYCQQANSFPITFGQGTRLEIK	T
HuMab 098 (antibody, V domains shown, also called TH1014-098; PC1014-098) VH: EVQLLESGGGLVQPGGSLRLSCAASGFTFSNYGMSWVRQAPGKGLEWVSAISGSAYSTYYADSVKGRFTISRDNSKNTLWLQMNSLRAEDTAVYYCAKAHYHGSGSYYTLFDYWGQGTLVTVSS VL: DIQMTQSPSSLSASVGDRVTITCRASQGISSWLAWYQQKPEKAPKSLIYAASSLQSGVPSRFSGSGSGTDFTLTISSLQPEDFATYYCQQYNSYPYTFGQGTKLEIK	T
HuMab 091 (antibody, V domains shown, also called TH1014-091; PC1014-091) VH: QVQLQQWGAGLLKPSETLSLTCAVSGGSFSGYYWTWIRQPPGKGLEWIGEIYHSGDTNYNPSLKSRVTISVDTSKNQFSLKLYSVTAADTAVYYCARLYFGSGIYYLDYWGQGTLVTVSS VL: DIQMTQSPSSLSASVGDRVTITCRASQGISSWLVWYQQKPEKAPKSLIYAASSLQSGVPSRFSGSGSGTDFTLTISSLQPEDFATYYCQQYNSFPPTFGQGTKVEIK	F
HuMab 129 (antibody, V domains shown) VH: QVQLVESGGGVVQPGRSLRLSCAASGFTFSTFAIHWVRQAPGKGLEWVAVISYDGGHKFYADSVKGRFTISRDNSKNTLYLQMNSLRAEDTAMYYCARGLGVWGAFDYWGQGTLVTVSS VL: EIVLTQSPATLSLSPGERATLSCRASQSVSSYLAWYQQKPGQAPRLLIYDASNRATGIPARFSGSGSGTDFTLTISSLEPEDFAVYYCQQRSNWWTFGQGTKVEIK	F
HuMab 159 (antibody, V domains shown, also called TH1014-159; PC1014-159) VH: EVQLVQSGAEVKKPGESLKISCKGSGYNFTSYWIGWVRQMPGKGLEWMGIIYPGDSDTRYSPSFQGQVTISADKSISTAYLQWSSLKASDTAMYYCARWGTYYDILTGYFNWFDPWGQGTLVTVSS VL: DIQMTQSPSSLSASVGDRVTITCRASQGISSWLAWYQQKPEKAPKSLIYAASSLQSGVPSRFSGSGSGTDFTLTISSLQPEDFATYYCQQYYIYPWTFGQGTKVEIK	F
HuMab 153 (antibody, V domains shown) VH: QVQLVESGGGVVQPGRSLRLSCAASGFTFSDYVIHWVRQAPGKGLEWVTVISYDGSNKYYADSVKGRFTISRDNSKNTLYLQMNSLSAEDTAMYYCARGGITGTTGVFDYWGQGTLVTVSS VL: DIQMTQSPSSLSASVGDRVTITCRASQGISSWLAWYQQKPEKAPKSLIYDASSLQSGVPSRFSGSGYGTDFSLTISSLQPEDFAIYYCQQYKSYPITFGQGTRLEIK	F
HuMab 132 (antibody, V domains shown) VH: QVQLVQSGAEVKKPGASVKVSCKASGYTFTSYGISWVRQAPGQGLEWMGWISAYNGNSNYVQKFQGRVTMTTDTTTSTAYMELRSLTSDDTAVYYCAREYSYDSGTYFYYGMDVWGQGTTVTVSS VL: EIVLTQSPATLSLSPGERATLSCRASQSVSSYLAWYQQKPGQAPRLLIYDASNRATGIPARFSGSGSGTDFTLTISSLEPEDFAVYYCQQRSNWPMYTFGQGTKLEIK	F
HuMab 025 (antibody, V domains shown, also called TH1014-025; PC1014-025) VH: QVQLQQWGAGLLKPSETLSLTCAVYGGSFSDYYWNWIRQPPGKGLEWIGEIHHSGSTNYNPSLKSRVTISVDTSKNQFSLKLSSVTAADTAVYYCARGYYDSGVYYFDYWAQGTLVTVSS VL: DIQMTQSPSSLSASVGDRVTITCRASQGISRWLAWYQQKPEKAPKSLIYAASSLRSGVPSRFSGSGSGTDFTLTISSLQPEDFATYYCQQYNSYPITFGQGTRLEIK	T
HuMab 059 (antibody, V domains shown, also called PC1014-059) VH: QVQLVQSGAEVKKPGASVRVPCKASGYTFTRYGISWVRQAPGQGLEWMGWISAYNGKTYYAQKLQGRVTMTTDTSTSTAYMELRSLRSDDTAVYYCARSPLLWFEELYFDYWGQGTLVTVSS VL: EIVLTQSPGTLSLSPGERATLSCRASQSVSSTYLAWYQQKPGQAPRLLIYGASSRATGIPDRFSGSGSGTDFTLTISRLEPEDFAVYYCQQYGTSLFTFGPGTKVDIK	F
HuMab 127 (antibody, V domains shown) VH: EVQLVQSGAEVKKPGESLTISCKGSGYSFSIYWIGWVRQMPGKGLEWMGIIFPGDSDIRYSPSFQGQVTISADKSISTAYLQWSSLKASDTAMYYCARQPGDWSPRHWYFDLWGRGTLVTVSS VL: VIWMTQSPSLLSASTGDRVTISCRMSQGISSYLAWYQQKPGKAPELLIYAASTLQSGVPSRFSGSGSGTDFTLTISYLQSEDFATYYCQQYYSFPLTFGGGTKVEIK	F
HuMab 169 (antibody, V domains shown, also called TH1014-169; PC1014-169) VH: QVQLVQSGAEVKKPGASVKVSCKASGYTFTNYGISWVRQAPGQGLEWMGWLSAYSGNTIYAQKLQGRVTMTTDTSTTTAYMELRSLRSDDTAVYYCARDRIVVRPDYFDYWGQGTLVTVSS VL: EIVLTQSPATLSLSPGERATLSCRASQSVSSYLAWYQQKPGQAPRLLIYDASNRATGIPARFSGSGSGTDFTLTISSLEPEDFAVYYCQQRSNWPRTFGQGTKVEIK	F
